# Tested on: ACHN renal
# protocol.description: NCI tumour cell line growth inhibition, 48 h
TGI by entry:

Example entries begin here.
CCOC(=O)c1c(N2CCCC2)[nH]c(=O)c(C(c2c(O)c(C(=O)OCC)c(N3CCCC3)[nH]c2=O)C(C)C)c1O	> 100 µM
C=CCn1c(-c2cc(C(C)(C)C)c(O)c(C(C)(C)C)c2)cs/c1=N\C(P(=O)(O)O)P(=O)(O)O	> 100 µM

Then there is this molecule:
Given CCCCCCCCSC(=O)NCCCC , report its TGI on ACHN renal.
> 100 µM

---

GI50 by entry:
# System: SF-268 CNS
# protocol.description: NCI tumour cell line growth inhibition, 48 h

Example entries begin here.
Cc1cc(F)c(C(=O)Nc2cccc(-c3nncn3C(C)C)n2)cc1-n1cnc(C2CC2)c1	21.5 µM
CCOC(=O)/C(=C/CC/C(C)=C/CC/C(C)=C/CCc1ccoc1)CC(=O)N1CCCCC1	8.91 µM
O=C(Nc1ccc(OS(=O)(=O)c2ccc(F)cc2)cc1)C12CC3CC(CC(C3)C1)C2	19.8 µM
C[C@@H]1CC[C@H]2[C@@H](C)C(O)O[C@@H]3O[C@]4(C)CC[C@@H]1[C@]32OO4 (stereo not given in full)	1.4 µM

Then there is this compound:
Let me know recorded GI50 for Cc1nnc(C[C@@H]2C=C(c3ccc(Cl)cc3)c3ccccc3-n3c(C)nnc32)o1 , thanks.
13.1 µM
